System: SK-MEL-2 melanoma
Experimental protocol: NCI tumour cell line growth inhibition, 48 h
Endpoint name: GI50

Form: compound = CNC(=O)NCC1OC(n2cnc3c(NC(=O)Nc4ccccc4)ncnc32)C(O[Si](C)(C)C(C)(C)C)C1O[Si](C)(C)C(C)(C)C (centres undefined) ; GI50 = 2.45 µM

So for Cc1c(CNc2ccc(C(=O)NC(CCCNC(=O)c3ccccc3C(=O)O)C(=O)O)cc2)cnc2nc(N)nc(N)c12 (centres undefined) , the logged GI50 turned out to be > 100 µM

Value of measured GI50 for the entry COc1cc2c(cc1OC)-c1ncc3c(OC)ccc(OC)c3c1C2 : 27.3 µM

Measured GI50, COC(=O)c1cc(-c2ccccc2)[nH]c1N/N=C/c1c(Cl)cccc1Cl : 0.615 µM

----------
Measured TGI, listed per entry for reference.
Test system: SF-268 CNS
Experimental protocol: NCI tumour cell line growth inhibition, 48 h

Cc1ccc(S(=O)(=O)NC(CCC(=O)NNc2ccccc2)C(=O)NNc2ccccc2)cc1 (stereo not given) = > 100 µM

CCCCc1ccc(Nc2ncc3ncn(COCCO)c3n2)cc1 has a reported TGI of > 100 µM

So, COc1ccc(C(=O)Cn2c(C(=O)c3ccccc3)nc3ccccc32)cc1 ? Its TGI was > 100 µM

Measured TGI of O=c1[nH]nc(-c2ccccc2)n1/N=C/c1ccc([N+](=O)[O-])o1 : > 28 µM

For reference, reported TGI for COc1ccc(-c2cc(=O)n(-c3nc4ccccc4[nH]3)[nH]2)cc1OC stands at > 100 µM

compound COc1ccc(C#Cn2nnc3ccccc32)cc1 , TGI observed: > 100 µM

response.value for CC(C)(C)C1CCC2c3c([nH]c4ccccc34)C3C(=O)N(c4ccc(C#N)cc4)C(=O)C3C2C1 (stereo not given) (field: TGI) = 29.3 µM

What the record says about Cc1ccc2nc3ccccc3c(NCc3ccc(Cl)cc3)c2c1 : TGI is 14.2 µM

So for C1=NCCNCCNCCN=Cc2ccc(cc2)OCc2cccc(n2)COc2ccc1cc2 , the logged TGI turned out to be > 100 µM

Entry Cc1c(C(=O)c2ccc(N)c3ccccc23)c2ccccc2n1CCN1CCOCC1 , TGI reported as > 88.5 µM

----------
Form field: TGI (one value per entry).
Tested on: NCI-H226 lung
Experimental protocol: NCI tumour cell line growth inhibition, 48 h

These recorded examples may help you get a feel for the data.
CC1CC[C@@]2(OC1)O[C@H]1[C@H](O)[C@H]3[C@@H]4CC[C@H]5C[C@@H](OC6OC(CO)C(OC7OC(CO)C(O)C(OC8OCC(O)C(O)C8O)C7OC7OC(CO)C(O)C(O)C7OC7OC(CO)C(O)C(O)C7O)C(O)C6O)[C@H](O)C[C@]5(C)[C@H]4CC[C@]3(C)[C@H]1[C@@H]2C (stereo partly drawn) = > 10 µM
COc1cccc(N=N/C(=N/NC(=O)c2ccc(C)cc2)c2ccc(N(CCC#N)CCC#N)cc2OC)c1 = > 100 µM
Cc1cc(C)c2c(c1)CC1(Cc3cc(C)c(C)cc3C1=O)C2=O (stereo not drawn) = > 100 µM
Nc1ccc(-c2nc3ccccc3s2)cc1Cl = > 100 µM
Cc1cn2c(/C=C3/C(=O)Nc4c3ccc3ccccc43)c(C(F)(F)F)nc2s1 = > 100 µM

Documented TGI of CSC(SC)=C(C#N)C(=O)Nc1cccc(Cl)c1 : > 100 µM

Record CC1CC/C(=C\c2ccc(F)cc2)C2=C1C(c1ccc(F)cc1)N1C(=O)CSC1=N2 (stereo not drawn) . Reported TGI: > 100 µM

The compound O=C(O)C(Cc1cnc[nH]1)N1C(=O)c2ccccc2C1=O (stereo not drawn) showed TGI equal to > 100 µM

----------
System: DU-145 prostate
Experimental protocol: NCI tumour cell line growth inhibition, 48 h
Endpoint name: TGI

CC(C)(C)OC(=O)[C@@H]1CCC(=O)N1C1(c2ccccc2)c2ccccc2-c2ccccc21 = > 100 µM
O=C(COc1ccc(OCC(=O)N2C(=O)CC(=O)N(c3ccc(Cl)cc3)C2=S)cc1)N1C(=O)CC(=O)N(c2ccc(Cl)cc2)C1=S = > 100 µM
O=c1[nH]nc(-c2ccccc2)n1/N=C/c1ccc([N+](=O)[O-])o1 = 17.5 µM

C[C@@H]1[C@@H](C)C(c2ccccc2)O[Si]1(C(C)(C)C)C(C)(C)C (some centres undefined) tested on DU-145 prostate gave TGI: 31.6 µM

Form: item CN(Cc1cnc2nc(N)nc(N)c2n1)c1ccc(C(=O)NC23CC4CC(CC(C4)C2)C3)cc1 ; test system DU-145 prostate; TGI: 38.1 µM

Bench note, DU-145 prostate: entry Cc1cc(-n2nnc(C(=O)O)c2-c2ccccc2)c2ccc(Cl)cc2n1 , its TGI = > 100 µM

Hey, DU-145 prostate data for CCCC[C@@H](C)/C=C1\CN2CCC[C@H]2[C@@](C)(OCc2ccccc2)[C@@H]1O : TGI came out at > 19.3 µM

Observed TGI on DU-145 prostate, entry Cc1cn2c(/C=C3/C(=O)Nc4c3ccc3ccccc43)c(C(F)(F)F)nc2s1 , equals > 100 µM

Considering C=CO/N=[N+](\[O-])N(CC)CC , its TGI with DU-145 prostate was recorded as > 100 µM

----------
Test system: HOP-18 NSCLC
Experimental protocol: NCI tumour cell line growth inhibition, 48 h
Endpoint name: TGI

Worked set:
COC(=O)CCC(NC(=S)N/N=C(\C)c1ccc[nH]1)C(=O)OC (stereo not given) = > 100 µM
O=C(O)CCC(=O)OCN1C(=O)C2C3C=CC(C2C1=O)C1C2C(=O)N(COC(=O)CCC(=O)O)C(=O)C2C31 (stereo not given) = > 100 µM
Cc1c(C(=O)C/C(=N/NC(=O)c2ccccc2)C(=O)Nc2ccc(Cl)cc2)[n+](=O)c2ccccc2n1[O-] = > 100 µM
CC(C)/C=C1\CCC(CN2CCOCC2)C1=O (stereo not given) = 31.8 µM
CCOC(=O)NC(=O)c1cn(CCN2CCN(C(=O)CNC(=O)CNC(=O)Cn3cc(C(=O)NC(=O)OCC)c(=O)[nH]c3=O)CC2)c(=O)[nH]c1=O = > 100 µM
COC1C(OC(=O)c2ccc(C)[nH]2)C(O)C(Oc2ccc3c(O)c(NC(=O)c4c[nH]c(C(=O)Nc5c(O)c6ccc(OC7OC(C)(C)C(OC)C(OC(=O)c8ccc(C)[nH]8)C7O)c(C)c6oc5=O)c4C)c(=O)oc3c2C)OC1(C)C (stereo not given) = 3.37 µM
O=C(CCN1CCOCC1)/C(=C/c1ccccc1)c1ccccc1 = 30.6 µM
CC(C)N(C(=O)c1cccc(C(=O)N(C(C)C)C(C)C)c1)C(C)C = > 100 µM
CCOC(=O)N1C/C(=C\c2ccccc2)C(=O)/C(=C/c2ccccc2)C1 = > 67.5 µM

Shifting focus to the compound that follows.
# TGI (compound: COc1cc(/C=C/c2ccc(C)cc2)cc(OC)c1OC ) is > 100 µM

----------
System: HS 578T breast
Experimental protocol: NCI tumour cell line growth inhibition, 48 h
Endpoint name: log10 TGI (log10 of the value in µM)
Base-10 log of TGI, unit µM.

Some compounds with known log10 TGI results, for comparison:
O=S(=O)(O)O = 3.35
CCCCc1ccc(Nc2ncc3ncn(COCCO)c3n2)cc1 = 1.92

Record summary for O=C(CCN1CCCC1)Nc1ccc2c(NCc3ccccc3)c3ccccc3nc2c1 : reported log10 TGI = 0.44

Notebook: O=[N+]([O-])c1cc[n+]([O-])c2ccccc12 , log10 TGI read as -0.15

In plain terms, CCOC(=O)N1C/C(=C\c2ccccc2)C(=O)/C(=C/c2ccccc2)C1 has a documented log10 TGI of 1.18

Lab note: measured log10 TGI of CO/N=C(\COc1ccc2c(=O)c3ccccc3oc2c1)c1ccccc1 was 1.95

Form: compound = CC(C)(C)OC(=O)N/C(C=O)=C\C1CCCCC1 ; log10 TGI = 1.93

Short answer for C[C@@H]1[C@@H](C)C(c2ccccc2)O[Si]1(C(C)(C)C)C(C)(C)C (some centres undefined) : log10 TGI was 1.63

----------
System: SR leukemia
Experimental protocol: NCI tumour cell line growth inhibition, 48 h
Endpoint name: TGI

Illustrative cases are given below, each with its answer.
O=C1COc2cc(N3CCN(c4cccc(C(F)(F)F)c4)CC3)ccc2N1 = > 100 µM
O=c1cc(-c2ccccn2)[nH]c2cccc(F)c12 = > 100 µM
C=CCn1c(=S)sc2c(C(=O)OCC)c3c(C)cc(C)cn3c2c1=O = > 100 µM

Value (TGI, SR leukemia) for record Cn1nc2ccc(Nc3cc(=O)[nH]c4ccc5nn(C)nc5c34)cc2n1 = > 100 µM

Reported TGI (SR leukemia) for entry COC(=O)[C@@H]1CS(=O)(=O)C(C(C)C)N1C(C)=O (stereo partly drawn) is > 100 µM

SR leukemia assay, compound O[C@@H]1C=C[C@]23CCN(Cc4cc5c(cc42)OCO5)[C@@H]3C1 , recorded TGI = > 100 µM

TGI on SR leukemia for C=CO/N=[N+](\[O-])N(CC)CC is > 100 µM

Lab entry: SR leukemia assay, compound C1=C(c2ccccc2)C(N2CCOCC2)Oc2ccccc21 (stereo not drawn) , TGI = > 100 µM

Measured TGI (SR leukemia), entry CCCn1c2c(c3c(O)cccc31)C(=O)c1ccccc1-2 : 23.8 µM

For C[C@H](c1ccc(Cl)cc1[N+](=O)[O-])N1C(=O)c2cc(I)ccc2N=C(OCCCN2CCN(C)CC2)[C@@H]1c1ccc(Cl)cc1 on SR leukemia, measured TGI was 3.88 µM

Recorded TGI for Nc1ccc(-c2nc3ccccc3s2)cc1Cl on SR leukemia was > 100 µM

Bench note, SR leukemia: CC1=CC2C(C(O)CC3(C)C2CC(C)C32OCOC23COCO3)C2(C)C/C(=C/O)C(=O)C=C12 (stereo not drawn) , TGI reads 4.45 µM

Kindly note: SR leukemia, Cc1ccc(S(=O)(=O)NC(CCC(=O)NNc2ccccc2)C(=O)NNc2ccccc2)cc1 (stereo not drawn) , TGI value reported: > 100 µM

Measured TGI for this entry O=C(O)CCC(=O)OCN1C(=O)C2C3C=CC(C2C1=O)C1C2C(=O)N(COC(=O)CCC(=O)O)C(=O)C2C31 (stereo not drawn) on SR leukemia: 52.4 µM

// assay SR leukemia, entry COC(C/C(=C/CO[Si](C(C)C)(C(C)C)C(C)C)C(=O)N(COCC[Si](C)(C)C)c1ccccc1I)OC , TGI value = > 100 µM

The compound Cc1ccc(/C=C(\C#N)c2cc3ccccc3n2C)cc1 , when measured on SR leukemia, yielded TGI of > 100 µM

Tested on SR leukemia, the item COc1ccc(-c2c(C)c(C(=O)O)nc(-c3ccc4c(O)c(OC)c5c(c4n3)=NC(C)(C)N=5)c2N)c(O)c1OC showed TGI equal to 1.94 µM

Entry C=CC(=O)N1CCC(c2ccc(C(N)=O)c(-c3ccc(Oc4ccccc4)cc3)n2)CC1 : TGI on SR leukemia = > 100 µM
